Test: AUC in mouse at 10 mg/kg, iv
Type: ADME, organism-based
Conditions: in vivo
measure-name: AUC (ng·h/mL)

{"columns": ["compound", "measure-name", "assay-value"],
 "data": [
  ["CCCCC(C(=O)COc1c(F)c(F)cc(F)c1F)n1cc([C@@](C)(NCc2ccn3nccc3n2)C2CCCC2)nn1 (some centres undefined)", "AUC", 5370],
  ["CCCCC(C(=O)COc1c(F)c(F)cc(F)c1F)n1cc([C@@](C)(NCc2ccc3ncccc3c2)C2CCCC2)nn1 (some centres undefined)", "AUC", 8710],
  ["CCCCC(C(=O)COc1c(F)c(F)cc(F)c1F)n1cc([C@@](C)(NCc2ccc3ncccc3c2)C(C)C)nn1 (some centres undefined)", "AUC", 4670],
  ["CCCCC(C(=O)COc1c(F)c(F)cc(F)c1F)n1cc([C@@](C)(NCc2ccc3ncsc3c2)C(C)C)nn1 (some centres undefined)", "AUC", 9610]
]}

Recorded values, source ChEMBL document CHEMBL3627660.
